Target: T1, biotinylated recombinant mouse IL-12Rβ2 (mouse, UniProt P97378 24-637, random biotinylated)
T1 construct: Recombinant protein produced in-house, biotinylated; also called mIL-12RB2; mouse IL-12RB2
T1 sequence: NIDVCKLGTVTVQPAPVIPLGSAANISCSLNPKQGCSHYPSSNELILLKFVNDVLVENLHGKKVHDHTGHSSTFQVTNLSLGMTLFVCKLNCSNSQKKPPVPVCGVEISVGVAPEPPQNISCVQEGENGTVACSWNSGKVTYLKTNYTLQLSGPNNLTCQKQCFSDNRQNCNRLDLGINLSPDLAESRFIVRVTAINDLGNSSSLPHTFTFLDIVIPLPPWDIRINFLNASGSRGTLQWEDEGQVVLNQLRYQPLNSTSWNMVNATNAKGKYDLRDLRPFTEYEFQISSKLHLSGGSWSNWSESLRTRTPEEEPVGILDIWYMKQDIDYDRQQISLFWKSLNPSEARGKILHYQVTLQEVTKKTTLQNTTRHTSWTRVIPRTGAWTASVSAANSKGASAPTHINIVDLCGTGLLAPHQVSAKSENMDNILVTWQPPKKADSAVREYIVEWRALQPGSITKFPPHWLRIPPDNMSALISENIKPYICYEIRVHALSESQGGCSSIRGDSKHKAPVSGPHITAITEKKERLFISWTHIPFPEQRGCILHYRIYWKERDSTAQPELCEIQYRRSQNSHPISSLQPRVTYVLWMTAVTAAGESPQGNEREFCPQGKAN
Experiment: BLI (Octet), periplasmic extract on biotinylated mIL-12Rβ2 on streptavidin tips
test-readout: Response
// response body must contain only the number

Answered examples (3):
>>> readout_value("anti-IL-12Rβ2 VHH clone 21055 (VHH, not shown: small tags and cut ends, tested as periplasmic extract; also called 3CRHM20) VHH: QVQLQESGGGLVQAGGSLRLSCAASGRTFSKSTMGWFRQTPGKEREFVAAITWTDTEVYANSVKDRFTISRDNAKNTFYLQMHSLKLEDTAVYYCAGDRYGSSRDSVFSSPTNYPYWGQGTQVTVSS")
0.586
>>> readout_value("anti-IL-12Rβ2 VHH clone 21052 (VHH, not shown: small tags and cut ends, tested as periplasmic extract; also called 3CRHM12) VHH: QVQLQESGGGSVQAGGSLRLSCAVSGRTVSDYAMGWFRQAPGKEREFVAAMSSSETTVYPNSVKGRITISRDNAKNAVYLQMNALKPEDTAVYYCSMGPIVTFQGLARQNEYHYWGQGTQVTVSS")
0.837
>>> readout_value("anti-IL-12Rβ2 VHH clone 21053 (VHH, not shown: small tags and cut ends, tested as periplasmic extract; also called 3CRHM14) VHH: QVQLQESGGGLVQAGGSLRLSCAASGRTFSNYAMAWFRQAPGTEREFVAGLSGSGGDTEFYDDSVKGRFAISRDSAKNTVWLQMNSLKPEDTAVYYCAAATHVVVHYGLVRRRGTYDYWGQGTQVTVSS")
0.957

Shift focus to the following entry.
Quick note, Response for anti-IL-12Rβ2 VHH clone 21058 (VHH, not shown: small tags and cut ends, tested as periplasmic extract; also called 3CRHM49) VHH: QVQLQESGGGLVQAGGSLRLSCAASGRTFSNYAMAWFRQAPGTEREFVAGLSGSGGDTAFYDNSVMGRFTISRDSAKNTMWLQINNLKPEDTAVYYCAAATHVVVSYGLVRRRGTYDYWGQGTQVTVSS landed at 1.15

FYI, the data here is from patent US20260209362A1.
